- Recorded Conditions: 20 °C
Quick rule: solubility of at least 5 mM means 1 (yes), below that means 0 (no).

> print(dat)
                              compound  class.assignment
1                        OCc1ccc(I)cc1            0 (no)
2                CCc1nc2cnc(O)nc2nc1CC           1 (yes)
3                           C=CCCN=C=S            0 (no)
4             O=[N+]([O-])c1cccc(CO)c1            0 (no)
5                      Cc1ncc2nccnc2n1           1 (yes)
6                    O=C(O)c1cc(Br)co1           1 (yes)
7                   Cc1cnnc2c(O)cccc12            0 (no)
8  NC(=O)NC(Cc1ccccc1)C(=O)O (racemic)           1 (yes)

###

- Recorded Conditions: 20 °C
So basically, the class depends on measured solubility, and the ranges are one (below 4 mM), two (4 mM to below 30 mM), three (30 mM or more)

> print(dat)
                                    compound  class.assignment
 1                  COc1c(C(=O)O)cccc1C(=O)O               two
 2              COc1ccc2c(c1)Sc1ccc(Cl)cc1N2               one
 3                    CC(=O)/C(=N/O)c1ccccc1               two
 4                   CCOC(=O)C(C)=CC(=O)[O-]             three
 5              OCc1c(Cl)c(Cl)c(Cl)c(Cl)c1Cl               one
 6                         O=C1C=CC(=NO)C=C1               two
 7                     O=c1ncc2[nH]cnc2[nH]1               two
 8    CCCCOC(=O)c1c(C(=O)O)cccc1[N+](=O)[O-]               one
 9  N[C@@H](C(=O)O)[C@@H](O)[C@H](O)[C@H](O)CO             three
10   CC(=O)N[C@@H](CSc1ccc(Cl)c(Cl)c1)C(=O)O               one
11                       O=C(O)C(Cl)=C(Br)Br             three
12                      CC(=O)Nc1ccc(Cl)cc1C               two
13              C[C@H](NC=O)C(=O)O (racemic)             three

###

Each entry below lists one item and its recorded solubility value.
Readout Label: solubility (mM)

> print(dat)
                                    compound  readout.label  units.of.measure  test.result
 1                    CCCCOC(=O)CCC(=O)OCCCC     solubility                mM        0.999
 2                          C[C@@H](O)CCCC=O     solubility                mM          344
 3  O=C(c1cc([N+](=O)[O-])cc([N+](=O)[O-])c1)N(O)c1ccccc1     solubility                mM        0.231
 4                         CCCCCc1ccc(O)cc1O     solubility                mM         11.1
 5                            Cn1cc(I)ccc1=O     solubility                mM          979
 6                            NC(=S)SCC(=O)O     solubility                mM          179
 7           N#CC1CCCC1=O (stereo not drawn)     solubility                mM          440
 8                     O=C(O)C1=CCCc2ccccc21     solubility                mM         1.61
 9                             NCCCNc1ccccc1     solubility                mM         22.2
10                 O=C(O)CC1(CC(=O)O)OCOC1=O     solubility                mM          245
11                      O=S(=O)(O)c1cnc[nH]1     solubility                mM         1350
12                  COCCOC(=O)CCCCC(=O)OCCOC     solubility                mM         54.1
13                            CCSS(=O)(=O)CC     solubility                mM         77.8
14        CC1NC(=O)CNC1=O (stereo not drawn)     solubility                mM         1950
15                     Oc1ccc(-c2ccccc2)cc1O     solubility                mM         8.59
16           COc1ccc(NC(=N)Nc2ccc(OC)cc2)cc1     solubility                mM         1.84
17                           C1COC2(C1)CCCO2     solubility                mM          780
18                          COCC(=O)c1ccccc1     solubility                mM          173
19                  O=C(c1ccco1)N(O)c1ccccc1     solubility                mM         0.64
20                 Nc1ccc(CC(=O)c2ccccc2)cc1     solubility                mM         15.7
21  NNC(=O)[C@H](O)[C@@H](O)[C@H](O)[C@H](O)CO     solubility                mM          317
22                         CCC(Cl)(CC)C(N)=O     solubility                mM         93.6
23                   O=P(O)(O)c1cccc2ccccc12     solubility                mM           24
24                      CC(=O)C(=O)Nc1ccccc1     solubility                mM         42.9
25                           O=[N+]([O-])CCl     solubility                mM          524
26               CC1(C)OC(=O)c2cc3ccccc3cc21     solubility                mM         1.04
27                O=c1[nH]c(-c2ccccc2)ncc1Br     solubility                mM        0.332
28         CCNC(CC)C(=O)O (stereo not drawn)     solubility                mM          381
29                         CCCOC(=O)C(C)(C)O     solubility                mM          684
30                                CNCCC(=O)O     solubility                mM          882
31                    COC(=O)CCCCCCCCC(=O)OC     solubility                mM        0.521
32                       COC(/C=C/C(OC)OC)OC     solubility                mM         1140
33              Cn1c(=O)[nH]n(-c2ccccc2)c1=O     solubility                mM         1.05
